- Tested on: SF-295
- Test: NCI tumour cell line growth inhibition, 48 h
Active and inactive are the calls of the source. Rule as the data show it: active = GI50 up to about 1.1 µM and inactive = higher.
Outcome codes: true = active, false = inactive

| Compound | Assigned category |
| --- | --- |
| CCN(CC)C(=O)CCNC(C)Cc1c[nH]c2ccccc12 (stereo not given) | false |
| CCCCCCCCCCCCCCCCS(=O)(=O)c1ccc(NN)cc1 | false |
| COc1cc(-c2cc(=O)c3cc4c(=O)cc(-c5cc(OC)c(OC)c(OC)c5)oc4cc3o2)cc(OC)c1OC | false |
| CCOP(=O)(OCC)/C(C#N)=C/c1nccn1C | false |
| CC1=C2C(=O)C(C)(C)C=C2C(=O)[C@](C)(O)C12CC2 [DEHYDROILLUDIN M] | true |
| CCOC(=O)c1csc(NC(=O)CN2CCN(C)CC2)n1 | false |
| CC(=O)OC1COC(N2C(=O)/C(=N\NC(N)=S)c3cc(Br)ccc32)C(OC(C)=O)C1OC(C)=O (stereo not given) | false |
| CN(C)Cc1c[nH]c2ncnc(O)c12 | false |
| CC(=O)NNc1nc(C)c(C(=O)NNC(=O)C(=O)Nc2c(C)cccc2C(C)C)s1 | false |
| CCCCCCCCCCCCCC(=O)OCC1OC(OC)C(NC(=O)N(CCCl)N=O)C(O)C1O (stereo not given) | false |
